Biological target: Acetylcholinesterase (Homo sapiens)
Experiment: Acetylcholinesterase (AChE) small molecule antagonists: colormetric cell-based qHTS assay (AID 1347395); also: nearly all actives have a fitted effect of over 30% in size
Settings: SH-SY5Y cells AChE activity, colorimetric (Ellman); series mostly up to 115 µM
Records with an inconclusive call do not appear. Calls of active or inactive are those of the source. Calls follow the shape of the full dose curve.
The reply should name one outcome from TRUE (active), FALSE (inactive)

Please let me know the test result on file for `O=P(O)(O)C(O)(Cc1cccnc1)P(=O)(O)O` .
FALSE

Request: `C=CCN(CC=C)CC=C`
FALSE

Request: `CCCOC(C(=O)OC1CCN(C)CC1)(c1ccccc1)c1ccccc1`
FALSE

Request: CCCN(CCC)C(=O)C(CCC(=O)O)NC(=O)c1ccccc1 (configuration not stated)
FALSE

Request: `C=C(C)CS(=O)(=O)O`
FALSE

Request: `C=Cc1ccc(S(=O)(=O)O)cc1`
FALSE

Request: `O=C(O)/C=C/c1ccc(/C=C/C(=O)O)cc1`
FALSE

Request: `CCOC(=O)[C@H](CCc1ccccc1)N[C@@H](C)C(=O)N1[C@H](C(=O)O)C[C@@H]2CCC[C@@H]21`
FALSE

Request: CCC(C)C(=O)OCCc1ccccc1 (configuration not stated)
FALSE

Request: CN1CCCN=C1COC(=O)C(O)(c1ccccc1)C1CCCCC1 (configuration not stated)
FALSE
